- MEASUREMENT_TARGET: T1, human tissue factor pathway inhibitor (TFPI) (human, UniProt P10646 29-304, limits assumed)
- T1 construct: bought; also called hTFPI; human TFPI
- T1 sequence (looked up): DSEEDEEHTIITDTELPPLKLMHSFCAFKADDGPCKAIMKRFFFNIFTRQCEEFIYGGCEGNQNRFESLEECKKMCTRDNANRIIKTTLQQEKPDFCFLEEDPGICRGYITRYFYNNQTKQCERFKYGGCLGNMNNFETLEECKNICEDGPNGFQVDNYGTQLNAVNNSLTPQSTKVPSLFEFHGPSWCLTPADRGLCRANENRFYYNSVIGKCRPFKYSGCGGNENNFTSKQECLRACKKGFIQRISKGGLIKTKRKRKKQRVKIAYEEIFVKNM
- ASSAY_METHOD_TEXT: SPR, TFPI immobilized
METRIC_NAME: KD fold improvement (fold)
Write the value in fold as a bare number.

// below: answered binders
[
  {
    "BINDER": "2A8-127 (HC S35D+K99L/LC Y48F+N51V+G56D+V96W) (Fab, V domains shown) VH: QVQLVESGGGLVQPGGSLRLSCAASGFTFRSYGMDWVRQAPGKGLEWVSSIRGSSSSTYYADSVKGRFTISRDNSKNTLYLQMNSLRAEDTAVYYCARLYRYWFDYWGQGTLVTVSS VL: DIELTQPPSVSVAPGQTARISCSGDNLRNYYAHWYQQKPGQAPVVVIFYDVNRPSDIPERFSGSNSGNTATLTISGTQAEDEADYYCQSWDDGVPWFGGGTKLTVLG",
    "RESULT_VALUE": 22
  },
  {
    "BINDER": "2A8-227 (HC S35D+K99L/LC Y48F+D91L+V96W) (Fab, V domains shown) VH: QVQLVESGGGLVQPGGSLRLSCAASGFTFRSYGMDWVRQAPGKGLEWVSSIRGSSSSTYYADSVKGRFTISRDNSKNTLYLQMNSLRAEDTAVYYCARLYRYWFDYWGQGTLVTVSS VL: DIELTQPPSVSVAPGQTARISCSGDNLRNYYAHWYQQKPGQAPVVVIFYDNNRPSGIPERFSGSNSGNTATLTISGTQAEDEADYYCQSWLDGVPWFGGGTKLTVLG",
    "RESULT_VALUE": 49.4
  }
]

Task: Give KD fold improvement for 2A8-143 (HC S35D+S55R+K99L/LC Y48F+N51V+D91L+V96W) (Fab, V domains shown) VH: QVQLVESGGGLVQPGGSLRLSCAASGFTFRSYGMDWVRQAPGKGLEWVSSIRGSRSSTYYADSVKGRFTISRDNSKNTLYLQMNSLRAEDTAVYYCARLYRYWFDYWGQGTLVTVSS VL: DIELTQPPSVSVAPGQTARISCSGDNLRNYYAHWYQQKPGQAPVVVIFYDVNRPSGIPERFSGSNSGNTATLTISGTQAEDEADYYCQSWLDGVPWFGGGTKLTVLG
Output: 50.9
